assay: AUC (0 to infinity) in Sprague-Dawley rat at 5 mg/kg, iv measured after 24 hrs by LC-MS/MS analysis; format: ADME, organism-based; design: route intravenous, dose 5 mg/kg, time 24 hrs; conditions: in vivo

{"structure-smiles-string": "N#Cc1c(N2CCOCC2)sc(-c2nc[nH]n2)c1-c1ccc(NC(=O)Nc2ccccc2Cl)cc1", "AUC(0-inf)": "1620 ng·h/mL"}

====

Parameter IC50, tested on PI3-kinase p110-alpha/p85-alpha (Homo sapiens), listed per item.
Sequence (P27986 whole entry): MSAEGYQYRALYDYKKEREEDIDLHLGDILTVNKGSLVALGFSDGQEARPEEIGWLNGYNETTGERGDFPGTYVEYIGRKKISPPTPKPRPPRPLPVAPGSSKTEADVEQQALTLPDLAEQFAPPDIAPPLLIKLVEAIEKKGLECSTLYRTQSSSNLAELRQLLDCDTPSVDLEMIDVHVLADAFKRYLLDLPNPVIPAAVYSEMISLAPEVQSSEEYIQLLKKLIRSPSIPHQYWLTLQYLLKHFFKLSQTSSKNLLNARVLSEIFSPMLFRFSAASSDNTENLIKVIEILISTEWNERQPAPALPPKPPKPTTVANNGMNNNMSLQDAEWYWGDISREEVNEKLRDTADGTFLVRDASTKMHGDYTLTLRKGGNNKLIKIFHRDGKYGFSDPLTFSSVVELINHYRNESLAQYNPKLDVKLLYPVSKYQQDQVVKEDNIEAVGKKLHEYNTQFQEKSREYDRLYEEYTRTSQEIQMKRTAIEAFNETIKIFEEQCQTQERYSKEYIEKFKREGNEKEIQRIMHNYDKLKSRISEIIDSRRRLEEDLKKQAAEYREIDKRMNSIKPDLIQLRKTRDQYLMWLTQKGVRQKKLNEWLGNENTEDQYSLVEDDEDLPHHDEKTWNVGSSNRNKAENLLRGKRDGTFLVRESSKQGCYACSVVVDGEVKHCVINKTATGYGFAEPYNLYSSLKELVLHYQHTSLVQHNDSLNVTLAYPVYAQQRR
Sequence (P42336 whole entry): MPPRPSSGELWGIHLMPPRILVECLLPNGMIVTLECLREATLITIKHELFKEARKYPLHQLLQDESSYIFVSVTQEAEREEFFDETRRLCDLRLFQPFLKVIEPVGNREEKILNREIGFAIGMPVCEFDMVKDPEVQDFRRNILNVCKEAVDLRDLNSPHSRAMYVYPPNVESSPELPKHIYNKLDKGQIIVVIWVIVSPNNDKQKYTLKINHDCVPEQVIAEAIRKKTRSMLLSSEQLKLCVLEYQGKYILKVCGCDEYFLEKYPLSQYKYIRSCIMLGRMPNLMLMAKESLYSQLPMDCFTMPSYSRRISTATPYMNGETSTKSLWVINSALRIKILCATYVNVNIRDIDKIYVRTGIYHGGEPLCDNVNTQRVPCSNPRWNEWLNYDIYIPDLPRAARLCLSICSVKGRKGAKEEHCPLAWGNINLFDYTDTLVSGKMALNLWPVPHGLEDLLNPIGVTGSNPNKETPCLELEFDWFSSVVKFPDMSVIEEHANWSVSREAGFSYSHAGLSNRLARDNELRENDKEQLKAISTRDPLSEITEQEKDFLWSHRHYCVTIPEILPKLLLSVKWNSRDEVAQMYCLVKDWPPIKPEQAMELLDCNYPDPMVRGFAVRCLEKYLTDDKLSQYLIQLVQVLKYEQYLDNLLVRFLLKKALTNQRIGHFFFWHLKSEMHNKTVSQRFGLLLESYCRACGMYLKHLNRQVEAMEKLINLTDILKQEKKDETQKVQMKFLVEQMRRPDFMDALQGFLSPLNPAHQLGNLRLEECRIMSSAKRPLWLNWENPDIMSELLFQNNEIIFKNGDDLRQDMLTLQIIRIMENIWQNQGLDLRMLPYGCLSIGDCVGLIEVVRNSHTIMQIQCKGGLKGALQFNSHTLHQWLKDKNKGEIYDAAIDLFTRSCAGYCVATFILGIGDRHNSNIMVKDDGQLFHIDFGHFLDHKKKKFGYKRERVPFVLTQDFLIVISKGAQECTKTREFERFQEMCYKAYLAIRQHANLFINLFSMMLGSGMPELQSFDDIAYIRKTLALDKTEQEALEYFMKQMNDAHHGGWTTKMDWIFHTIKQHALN

{"structure-smiles-string": "N#Cc1ccc(-c2c(-c3nnc[nH]3)sc(N3CCOCC3)c2C#N)c(F)c1", "IC50 / nM": 5.4}
{"structure-smiles-string": "N#Cc1c(N2CCOCC2)sc(-c2nc[nH]n2)c1-c1ccc(NC(=O)N/N=C/c2ccc(F)cc2)cc1", "IC50 / nM": 75.5}
{"structure-smiles-string": "N#Cc1c(N2CCOCC2)sc(-c2nc[nH]n2)c1-c1ccc(NC(=O)Nc2cccc(Br)c2)cc1", "IC50 / nM": 239}
{"structure-smiles-string": "COc1cc(/C=N/NC(=O)Nc2ccc(-c3c(-c4nc[nH]n4)sc(N4CCOCC4)c3C#N)cc2)cc(OC)c1OC", "IC50 / nM": 110}
